// reported Phage library screen NGS readout, BLANK per item
test-target: RNF31 PUB domain (Homo sapiens, UniProt Q96EP0)
Construct: MBP-TEV (N, cleaved yes); made in house; host or cells: E. coli BL21 (DE3) pLysS
Sequence (Q96EP0 1-179): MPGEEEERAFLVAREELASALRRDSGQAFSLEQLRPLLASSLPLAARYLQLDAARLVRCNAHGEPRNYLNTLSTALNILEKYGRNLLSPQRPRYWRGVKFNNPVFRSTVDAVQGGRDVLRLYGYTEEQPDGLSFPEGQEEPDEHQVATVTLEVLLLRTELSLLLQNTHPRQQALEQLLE
procedure-summary: Phage Library Screening with NGS, RNF31 PUB domain
Format: binding
condition-parameters: clusters C41-C45; BLANK screen, column 1 of 5
Ends that are not written are not given here.

sequence-string: DPAFTDCQLAAAVCMTY
test-target: RNF31 PUB domain (Homo sapiens, UniProt Q96EP0)
Phage library screen NGS readout, BLANK: 1

sequence-string: DPALWDCLYAADACITS (not fully specified; cysteine pairing not given here)
test-target: RNF31 PUB domain (Homo sapiens, UniProt Q96EP0)
Phage library screen NGS readout, BLANK: 0

sequence-string: DPADWDCMYAAQDCFED
test-target: RNF31 PUB domain (Homo sapiens, UniProt Q96EP0)
Phage library screen NGS readout, BLANK: 0

sequence-string: DPAMEWCWDAAVFCTYS
test-target: RNF31 PUB domain (Homo sapiens, UniProt Q96EP0)
Phage library screen NGS readout, BLANK: 2

sequence-string: DPAYEDCAWAALYCDMT
test-target: RNF31 PUB domain (Homo sapiens, UniProt Q96EP0)
Phage library screen NGS readout, BLANK: 0

sequence-string: DPAAWECHIAAFVCSTY
test-target: RNF31 PUB domain (Homo sapiens, UniProt Q96EP0)
Phage library screen NGS readout, BLANK: 0

sequence-string: DPAWEWCLYAAAECIED
test-target: RNF31 PUB domain (Homo sapiens, UniProt Q96EP0)
Phage library screen NGS readout, BLANK: 0

sequence-string: DPAWWSCMYAAWTCDDT
test-target: RNF31 PUB domain (Homo sapiens, UniProt Q96EP0)
Phage library screen NGS readout, BLANK: 0

sequence-string: DPAIDACYDAAVMCTYV
test-target: RNF31 PUB domain (Homo sapiens, UniProt Q96EP0)
Phage library screen NGS readout, BLANK: 0

---

test-target: RNF31 UBA domain (Homo sapiens, UniProt Q96EP0)
Construct: RNF31 UBA domain protein (residues 480-639) with N-terminal Thioredoxin-TEV-6×his-yBBr-3C tags; Thioredoxin (N, cleaved yes); made in house; host or cells: E. coli BL21 (DE3) pLysS
Sequence (Q96EP0 480-639): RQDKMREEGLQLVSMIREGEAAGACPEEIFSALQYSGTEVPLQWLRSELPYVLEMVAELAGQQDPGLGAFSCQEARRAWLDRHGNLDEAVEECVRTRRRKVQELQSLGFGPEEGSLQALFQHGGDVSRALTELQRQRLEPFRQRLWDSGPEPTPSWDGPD
procedure-summary: Phage Library Screening with NGS, RNF31 UBA domain
Type: binding
condition-parameters: Target Concentration 30; no competitor
measurement-label: phage screen NGS read-out at Target Concentration 30

sequence-string: DPALSQCVYAAVFCQNL
reported-value: 2

sequence-string: DPAEWLCQMAAHNCIYL
reported-value: 1

sequence-string: DPAFSQCIYAAFQCDMQ
reported-value: 0

sequence-string: DPAQWVCHMAAMNCLYQ
reported-value: 1

sequence-string: DPAMIQCLSAAVYCVHY
reported-value: 3

sequence-string: DPAFSECVYAATMCLNH
reported-value: 0

sequence-string: DPAQNHCDSAAVFCYIL
reported-value: 0

sequence-string: DPAHHHCQAAAAWCWVM
reported-value: 0

sequence-string: DPAHILCEMAARNCLYN
reported-value: 1

sequence-string: DPAFSQCVYAAVVCEVQ
reported-value: 0

sequence-string: DPAEWICRMAAMNCLYQ (Ac-DPAEWICRMAAMNCLYQ-NH2; not fully specified (bridges); cysteine pairing not given here)
reported-value: 0

sequence-string: DPAFSLCVYAALFCEQQ
reported-value: 0

sequence-string: DPANEHCIAAAWWCQIL
reported-value: 0

sequence-string: DPAHVHCQAAAQWCVLL
reported-value: 1

sequence-string: DPASIHCAAAALWCDIL
reported-value: 0

---

// reported Phage library screen NGS readout, BLANK per item
test-target: RNF31 UBA domain (Homo sapiens)
Construct: RNF31 UBA domain protein (residues 480-639) with N-terminal Thioredoxin-TEV-6×his-yBBr-3C tags; Thioredoxin (N, cleaved yes); made in house; host or cells: E. coli BL21 (DE3) pLysS
Sequence (Q96EP0 480-639): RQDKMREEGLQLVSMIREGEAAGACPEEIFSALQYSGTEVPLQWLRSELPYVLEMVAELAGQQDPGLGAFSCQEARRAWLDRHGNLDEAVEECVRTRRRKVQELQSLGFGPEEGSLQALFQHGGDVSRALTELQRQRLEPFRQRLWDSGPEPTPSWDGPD
procedure-summary: Phage Library Screening with NGS, RNF31 UBA domain
Assay type: binding
condition-parameters: cluster C46; BLANK screen, column 3 of 5
measurement-label: Phage library screen NGS readout, BLANK

sequence-string: DPAALACLSAAVYCEMY
reported-value: 2
//
sequence-string: DPAQLNCLSAAMYCALY
reported-value: 1
//
sequence-string: DPAVQSCLSAAVYCAFR
reported-value: 2
//
sequence-string: DPASASCLSAAIYCSMF
reported-value: 1
//
sequence-string: DPAQMSCFSAAVYCRLF
reported-value: 0
//
sequence-string: DPAQRQCLSAAVWCATF
reported-value: 2
//
sequence-string: DPALQSCLSAAVYCTVS
reported-value: 0
//
sequence-string: DPAHVRCTSAALWCNIF
reported-value: 0
//
sequence-string: DPALTNCFSAAVYCAMF
reported-value: 1
//
sequence-string: DPAQRQCLSAAVFCATL
reported-value: 1
//
sequence-string: DPALRTCLSAAVFCAVA
reported-value: 1
//
sequence-string: DPAQMFCYSAAVYCAAF
reported-value: 0
//
sequence-string: DPAAQACLSAAVFCAWY
reported-value: 0
//
sequence-string: DPAEQRCLSAAVYCAWH
reported-value: 1
//
sequence-string: DPAASQCFSAAVYCAWI
reported-value: 0

---

test-target: beta-catenin (Homo sapiens, UniProt P35222)
Construct: made in house; host or cells: E. coli BL21 (DE3) pLysS
Sequence (P35222 134-665): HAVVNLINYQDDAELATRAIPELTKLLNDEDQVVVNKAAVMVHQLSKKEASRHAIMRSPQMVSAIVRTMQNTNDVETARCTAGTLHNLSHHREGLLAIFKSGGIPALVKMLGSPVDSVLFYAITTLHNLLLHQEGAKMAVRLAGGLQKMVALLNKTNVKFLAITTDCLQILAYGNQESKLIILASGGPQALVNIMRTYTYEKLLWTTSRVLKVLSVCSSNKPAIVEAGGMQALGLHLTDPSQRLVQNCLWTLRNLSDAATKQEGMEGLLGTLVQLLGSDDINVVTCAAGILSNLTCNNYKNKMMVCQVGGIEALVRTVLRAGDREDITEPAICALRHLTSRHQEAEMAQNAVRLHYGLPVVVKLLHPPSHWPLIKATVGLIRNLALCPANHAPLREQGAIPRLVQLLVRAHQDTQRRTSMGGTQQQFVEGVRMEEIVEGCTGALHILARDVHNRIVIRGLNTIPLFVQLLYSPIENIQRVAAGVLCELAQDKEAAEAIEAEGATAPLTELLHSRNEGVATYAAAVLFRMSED
procedure-summary: Phage Library Screening with NGS, beta-catenin
Format: binding
condition-parameters: BLANK, first column
Ends that are not written are not given here.
// reported Target Concentration BLANK (phage screen NGS readout) per item
measurement-label: Target Concentration BLANK (phage screen NGS readout)

sequence-string: DPAEVECMLAAHVCRAF
reported-value: 0

sequence-string: DPADTECILAAHFCHYF
reported-value: 0

sequence-string: DPAESDCILAAYICYVE
reported-value: 0

sequence-string: DPAVFMCYEAAFECQYF
reported-value: 0

sequence-string: DPADNECILAAHICTLA
reported-value: 0

sequence-string: DPAVIACYDAAFVCEYF
reported-value: 0

sequence-string: DPAHWRCEHAALLCWYN
reported-value: 0

sequence-string: DPAIIHCYQAAFQCQYM
reported-value: 0

sequence-string: DPAFLTCHIAAWACSEQ
reported-value: 0

sequence-string: DPAVMACYEAAFQCAYW
reported-value: 0

sequence-string: DPAENTCSWAAEHCALV
reported-value: 0

sequence-string: DPAVIQCYQAAFHCDYQ
reported-value: 0

sequence-string: DPASWRCEHAALNCQID
reported-value: 0

sequence-string: DPAEAECILAAHICNIS
reported-value: 0

sequence-string: DPAHWSCEWAAEHCRLI
reported-value: 0

sequence-string: DPANVECEWAAIHCSLV
reported-value: 0

sequence-string: DPAFLDCHIAAWTCNEF
reported-value: 0

sequence-string: DPAWWQCDHAALICIAE
reported-value: 0

sequence-string: DPAIFNCTMAALECTQI
reported-value: 0

sequence-string: DPADEDCILAAHVCRHF
reported-value: 0

sequence-string: DPAMSQCNWAAVHCQLL
reported-value: 0

sequence-string: DPATIRCYEAAFMCQYW
reported-value: 0

sequence-string: DPAFESCFLAAHICYWE
reported-value: 0

sequence-string: DPADDFCMWAAEHCELL
reported-value: 0

sequence-string: DPAYWVCEHAALLCTDY
reported-value: 3

sequence-string: DPAVEDCVLAAHVCAWF
reported-value: 0

sequence-string: DPADYECVIAAQVCQHF (not fully specified; cysteine pairing not given here)
reported-value: 0

sequence-string: DPAQWACEHAALLCSMD
reported-value: 0

sequence-string: DPAQNICEWAALHCDLI
reported-value: 0

sequence-string: DPAVLECHIAAWECRMD
reported-value: 0

sequence-string: DPAEHDCMLAAHFCRHF
reported-value: 0

sequence-string: DPAQSDCDWAAEHCNLI
reported-value: 0

sequence-string: DPAMVTCYEAAYVCQYF
reported-value: 0

sequence-string: DPAVVECYEAAYTCQYI
reported-value: 0

sequence-string: DPAQFYCEHAALLCRWE
reported-value: 0

sequence-string: DPAILECHMAAFECYIE
reported-value: 0

sequence-string: DPAHLMCHYAAWDCRDE
reported-value: 0

sequence-string: DPAMWICEHAALNCEIR
reported-value: 0

sequence-string: DPAHWHCEHAALLCASV
reported-value: 1

sequence-string: DPAEAICILAAHECWWD
reported-value: 0

sequence-string: DPAILDCQLAAIDCVYT
reported-value: 0

sequence-string: DPAELACEWAAIHCELV
reported-value: 0

sequence-string: DPAILDCQLAAMDCSTW
reported-value: 0

sequence-string: DPAEWQCEHAALLCEQQ
reported-value: 0

sequence-string: DPAILDCQIAAIECEFA
reported-value: 0

sequence-string: DPAEWYCEHAALVCTNH
reported-value: 2

sequence-string: DPAWSDCIWAAEHCQLI
reported-value: 0

sequence-string: DPADYDCILAAHICTNI
reported-value: 0

sequence-string: DPARHECILAAHICEWE
reported-value: 1

sequence-string: DPASWDCDHAALLCTLD
reported-value: 0

sequence-string: DPAALSCYQAAFHCQYY
reported-value: 0

sequence-string: DPAQQDCTLAAHVCRVF
reported-value: 0

sequence-string: DPAVHRCFWAAEHCDLI
reported-value: 0

sequence-string: DPAVFECSLAAIDCLQI
reported-value: 0
